target: PDE-5 enzyme (human blood platelets) (Homo sapiens (Human)); assay: PDE-5 enzyme assay, [3H]cGMP; format: biochemical; conditions: Table 2; human blood platelet enzyme; read-out: IC50 on PDE-5
MEASURED ATTRIBUTE: IC50 (nM)

> print(dat)
                                   compound                              study.target  recorded.number
1  COc1ccc(CNc2nc(N3CCC4(CC4)C3)ncc2C(=O)NCCN2CCN(C)CC2)cc1Cl [Compound 46]  PDE-5 enzyme (human blood platelets) (Homo sapiens (Human))             0.31
2  COc1ccc(CNc2nc(N3CCC4(CC4)C3)ncc2C(=O)N[C@H]2CC[C@H](O)CC2)cc1Cl [Compound 38]  PDE-5 enzyme (human blood platelets) (Homo sapiens (Human))              0.8
3  COc1ccc(CNc2nc(N3CC4CC4C3)ncc2C(=O)N[C@H]2CC[C@H](O)CC2)cc1C (stereo partly shown) [Compound 50]  PDE-5 enzyme (human blood platelets) (Homo sapiens (Human))             7.72
4  COc1ccc(CNc2nc(N3CC4CC4C3)ncc2C(=O)NCc2ncccn2)cc1Cl (stereo not shown) [Compound 1]  PDE-5 enzyme (human blood platelets) (Homo sapiens (Human))             6.04
